Molecular target: UniProt P53634
Sequence (P53634 25-134 limits assumed): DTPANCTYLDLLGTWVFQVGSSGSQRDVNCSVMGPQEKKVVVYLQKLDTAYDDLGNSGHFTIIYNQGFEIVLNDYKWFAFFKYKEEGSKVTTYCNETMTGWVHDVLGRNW
Sequence (P53634 231-394 limits assumed): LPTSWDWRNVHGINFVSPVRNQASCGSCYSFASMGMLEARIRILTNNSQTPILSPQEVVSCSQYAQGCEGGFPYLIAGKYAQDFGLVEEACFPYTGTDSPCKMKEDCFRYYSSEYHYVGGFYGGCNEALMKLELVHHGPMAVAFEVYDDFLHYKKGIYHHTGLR
Sequence (P53634 395-463 limits assumed): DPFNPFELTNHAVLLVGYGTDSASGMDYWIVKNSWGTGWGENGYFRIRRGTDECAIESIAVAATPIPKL
Test: Inhibition of cathepsin C in human U937 cells using H-Gly-Phe-AFC as substrate preincubated for 4 hrs followed by substrate addition and measured after 60 mins
Assay type: cell-based
pIC50: −log10 of the molar value.
Property measured: pIC50

Example cases with answers are listed next.
C=CC(=O)Nc1cc(Oc2nc(Nc3ccc(N4CCN(C)CC4)cc3OC)ccc2N2CCN(C)CC2)ccc1C = 8.33
C=CC(=O)Nc1cc(Oc2nc(Nc3ccc(N4CCN(C)CC4)cc3OC)ccc2N2CCCC2)ccc1C = 7.39
C=CC(=O)Nc1cc(Oc2nc(Nc3ccc(N4CCN(C)CC4)cc3OC)ccc2N2CCCCC2)ccc1C = 8.47

[A] C=CC(=O)Nc1cc(Oc2nc(Nc3ccc(N4CCN(C)CC4)cc3OC)ccc2N2CCC(O)C2)ccc1C (racemic)
[B] C=CC(=O)Nc1cc(Oc2nc(Nc3ccc(N4CCN(C)CC4)cc3OC)ccc2N2CCCC(O)C2)ccc1C (racemic)
[C] C=CC(=O)Nc1cc(Oc2nc(Nc3ccc(N4CCN(C)CC4)cc3OC)ccc2N2CCCCC2)ccc1C(F)(F)F
[D] C=CC(=O)Nc1cccc(Oc2nc(Nc3ccc(N4CCN(C)CC4)cc3OC)ccc2Cl)c1
Req: Could you please order the items by pIC50, going from the lowest number to the highest? Present the labels in the sequence the task asks for.
Resp: D, A, B, C
(D: 6.27, A: 7.31, B: 8.13, C: 8.62)

[1] C=CC(=O)Nc1cc(Oc2nc(Nc3ccc(N4CCN(C)CC4)cc3OC)ccc2N2CCOCC2)ccc1C
[2] C=CC(=O)Nc1cc(Oc2nc(Nc3ccc(N4CCN(C)CC4)cc3OC)ccc2N2CCCC2)ccc1C(F)(F)F
Req: Smaller pIC50 value? Options are 1 and 2 # respond with the chosen item's label
Resp: 2
(2: 7.94, 1: 8.23)
